- Tgt: p-Akt1 in LNCaP cells (Homo sapiens, UniProt P31749)
- Construct: SureFire assays to detect cellular p-Akt1, p-Akt2 and p-Akt3 levels in WM115 cells (Akt2/3) and LNCaP cells (Akt1); endogenous in cells; host or cells: LNCaP (ECACC 89110211)
- Sequence (P31749 whole entry): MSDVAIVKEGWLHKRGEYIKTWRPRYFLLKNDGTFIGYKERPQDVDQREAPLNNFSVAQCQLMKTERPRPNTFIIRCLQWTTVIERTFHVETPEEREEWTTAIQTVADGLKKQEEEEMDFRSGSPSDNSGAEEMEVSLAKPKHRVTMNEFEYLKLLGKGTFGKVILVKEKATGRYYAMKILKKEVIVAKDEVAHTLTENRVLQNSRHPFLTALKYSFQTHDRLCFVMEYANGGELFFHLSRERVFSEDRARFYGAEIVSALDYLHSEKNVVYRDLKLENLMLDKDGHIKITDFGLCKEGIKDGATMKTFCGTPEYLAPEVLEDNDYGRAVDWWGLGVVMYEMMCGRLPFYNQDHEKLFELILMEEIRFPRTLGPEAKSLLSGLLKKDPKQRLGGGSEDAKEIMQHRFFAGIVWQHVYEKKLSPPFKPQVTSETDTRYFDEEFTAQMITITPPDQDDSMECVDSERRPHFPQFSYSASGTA
- Assay Info: Phospho-Akt cellular SureFire assay, p-Akt1 in LNCaP cells
- Assay type: cell-based
- Condition Set: read-out: Biological Assay 2 IC50 (nM) Akt1 LNCaP

Molecule	IC50
COC(=O)N(C)[C@H]1CC[C@H](CC(=O)Nc2cc(-c3ccsc3)c(-c3ccc(C4(N)CCC4)cc3)nn2)CC1 [Example 81]	> 27000 nM
COC(=O)N(C)[C@H]1CC[C@H](CC(=O)Nc2cc(-c3ccsc3)c(-c3ccc(C4(N)CC4)c(F)c3)nn2)CC1 [Example A100]	> 30000 nM
CN(C(=O)C1CCC1)[C@H]1CC[C@H](CC(=O)Nc2cc(-c3ccccc3)c(-c3ccc(C(C)(C)N)cc3)nn2)CC1 [Example A87]	> 23000 nM
COC(=O)N(C)[C@H]1CC[C@H](CC(=O)Nc2cc(-c3ccsc3)c(-c3ccc([C@]4(N)C[C@](C)(O)C4)cc3)nn2)CC1 [Example 84]	> 19000 nM
C[C@]1(O)C[C@@](N)(c2ccc(-c3cnc(NC(=O)C[C@H]4CC[C@H](N5CCOC5=O)CC4)cc3-c3ccccc3)cc2)C1 [Example A57]	5800 nM
COC(=O)N(C)[C@H]1CC[C@H](CC(=O)Nc2cnc(-c3ccc(C4(N)CCC4)cc3)c(-c3ccsc3)c2)CC1 [Example A68]	> 30000 nM
NC1(c2ccc(-c3ncc(NC(=O)C[C@H]4CC[C@H](N5CCOCC5)CC4)cc3-c3ccccc3)cc2)CC(F)(F)C1 [Example A2]	7700 nM
CC(C)C(=O)N(C)[C@H]1CC[C@H](CC(=O)Nc2cc(-c3ccccc3)c(-c3ccc(C4(N)CC4)cc3)nn2)CC1 [Example A92]	> 30000 nM
CC(C)N(C(=O)C1CC1)[C@H]1CC[C@H](CC(=O)Nc2cc(-c3ccccc3)c(-c3ccc([C@]4(N)C[C@](C)(O)C4)cc3)nn2)CC1 [Example 105]	5300 nM
CCC(=O)N(C)[C@H]1CC[C@H](CC(=O)Nc2cc(-c3ccsc3)c(-c3ccc(C(C)(C)N)cc3)nn2)CC1 [Example 88]	> 30000 nM
CC(C)(N)c1ccc(-c2ncc(NC(=O)C[C@H]3CC[C@H](NC(=O)CC4CC4)CC3)cc2-c2ccccc2)cc1 [Example 29]	> 13000 nM
COC(=O)N(C)[C@H]1CC[C@H](CC(=O)Nc2cnc(-c3ccc([C@]4(N)C[C@](C)(O)C4)cc3)c(-c3ccccc3)c2)CC1 [Example 44]	1100 nM
CCC(=O)N(C)[C@H]1CC[C@H](CC(=O)Nc2cc(-c3ccccc3)c(-c3ccc(C4(N)CC4)cc3)cn2)CC1 [Example A81]	> 30000 nM
CC(=O)N(C)[C@H]1CC[C@H](CC(=O)Nc2cnc(-c3ccc([C@]4(N)C[C@](C)(O)C4)cc3)c(-c3ccccc3)c2)CC1 [Example 1]	2700 nM
CN(C(=O)C1CC1)[C@H]1CC[C@H](CC(=O)Nc2cnc(-c3ccc(C(C)(C)N)c(F)c3)c(-c3ccccc3)c2)CC1 [Example 53]	> 30000 nM
CC(=O)N(C)[C@H]1CC[C@H](CC(=O)Nc2cnc(-c3ccc(C4(N)CC(C)(O)C4)c(F)c3)c(-c3ccccc3)c2)CC1 (stereo partly shown) [Example 124]	10000 nM
COC(=O)N(C)[C@H]1CC[C@H](CC(=O)Nc2cc(-c3ccccc3)c(-c3ccc([C@]4(N)C[C@](C)(O)C4)cc3)cn2)CC1 [Example 67]	> 9300 nM
CC(=O)N(C)[C@H]1CC[C@H](CC(=O)Nc2cnc(-c3ccc(C(C)(C)N)c(F)c3)c(-c3ccccc3)c2)CC1 [Example 31]	> 30000 nM
C[C@]1(O)C[C@@](N)(c2ccc(-c3cnc(NC(=O)C[C@H]4CC[C@H](N5CCCC5=O)CC4)cc3-c3ccccc3)cc2)C1 [Example A82]	1800 nM
CC(C)C(=O)N(C)[C@H]1CC[C@H](CC(=O)Nc2cnc(-c3ccc(C(C)(C)N)cc3)c(-c3ccccc3)c2)CC1 [Example 4]	> 30000 nM
COC(=O)N(C)[C@H]1CC[C@H](CC(=O)Nc2cnc(-c3ccc([C@]4(N)C[C@H](F)C4)cc3)c(-c3ccccc3)c2)CC1 [Example 77]	> 30000 nM
CC(=O)N(C)[C@H]1CC[C@H](CC(=O)Nc2cc(-c3ccccc3)c(-c3ccc(C4(N)CC(F)(F)C4)cc3)nn2)CC1 [Example 73]	> 17000 nM

Sourced from patent US10336702B2
